- System: MS2 coat protein
- method-notes: apparent KD of MS2 coat protein; designed switch direction (-1 OFF switch, 1 ON switch): -1; higher = weaker reporter binding
- test-settings: input ligand: FMN 200 uM
condition met means recorded apparent KD of MS2 coat protein is 0.05 µM or above; condition not met means it is below 0.05 µM.

Recorded results for 3 sequences are shown here.
- sequence-record: "GUACUGACAGGAUAUACAUGAGGAUCACCCAUGUGCCUUAAUGCUACAAAAGUAGCGAGUAGAAGGGUCUGUAC [Omei Ex3 Model Bachelor's Dilema v12] (Eterna round: R97, puzzle: Exclusion 3)"
  assigned-label: "condition met"
- sequence-record: "AACUCUGAGAAGGAUAUUCAGUGGGAAACGACAGAAGAAGGUUUCACAUGAGGAUCACCCAUGUCGAAUAGUGA [EX6 #75] (Eterna round: R97, puzzle: Exclusion 6)"
  assigned-label: "condition not met"
- sequence-record: "CCCAACGUAACAGGAUAUGCUGUUGAGGCCGGGCGACCUACAUGAGGAUCACCCAUGUCGAAAUGGCAGAAGGGUUGCCGGGUA [Quatin] (Eterna round: R96, puzzle: Exclusion NG 2)"
  assigned-label: "condition met"

Qu. Threshold query (apparent KD of MS2 coat protein >= 0.05 µM) on CAAUAACAAGCGAGAUCCUACAUGAGGAUCACCCAUGUGCUCGUCUUAAAAGGUACUGUGACGAAAGUCACGGUACC [Eli 87 + Mat D67 3] (Eterna round: R97, puzzle: Sensor, turn-off variant 1)
Ans. condition not met

Qu. Entry UAUCGGGACUGAGGAUAUUCGUUCGAACACGAAGAAGAAGGUAGUGUCAGGGACAUGAGGAUCACCCAUGUGAACUCAGUCCUA [JL ViennaUCT Erinle mod] (Eterna round: R96, puzzle: Exclusion NG 1) : is its apparent KD of MS2 coat protein no less than 0.05 µM?
Ans. condition not met

* * *

- Test system: MS2 coat protein
- method-notes: apparent KD of MS2 coat protein; designed switch direction (-1 OFF switch, 1 ON switch): -1; higher = weaker reporter binding
- test-settings: input ligand: FMN 200 uM
parameter-measured: apparent KD of MS2 coat protein (nM)
Answer format: numeric, nM implied, no suffix.

- sequence-record: "GGAGAGUGAGGAUAUACAUGAGGAUCACCCAUGUAUAUCAAAUAAAAUAAAUUCUCAUGUAGAAGGCGCUUUUC [Alacar 3rd Attempt] (Eterna round: R97, puzzle: Exclusion 3)"
  target-desc: "MS2 coat protein"
  parameter-measured: "apparent KD of MS2 coat protein"
  u: "nM"
  reported-result: 16.2
- sequence-record: "ACAUGAGGAUCACCCAUGUCGAGUACAUGAGGAUCACCCAUGUAGGAUAUGGUUCGCUUUGCGUGCUAGAAGGAUAUAUGUUGA [salish99_ExNG3_r04_511] (Eterna round: R96, puzzle: Exclusion NG 3)"
  target-desc: "MS2 coat protein"
  parameter-measured: "apparent KD of MS2 coat protein"
  u: "nM"
  reported-result: 780
- sequence-record: "GCUGGUCGAGGAUAUACAUGAGGAUCACCCAUGUUGAUCAACUGCCGAUAGGCAGAAUGUAGAAGGCGACCAGC [E3/7-A1] (Eterna round: R97, puzzle: Exclusion 3)"
  target-desc: "MS2 coat protein"
  parameter-measured: "apparent KD of MS2 coat protein"
  u: "nM"
  reported-result: 137
- sequence-record: "AACCUACAUGAGGAUCACCCAUGUGAGGAUAUAUUGUUAUGGAUGUUAUUUUGUAGUGGUAGAAGGCGCGUGAU [JR_Exc1_Sub024] (Eterna round: R97, puzzle: Exclusion 1)"
  target-desc: "MS2 coat protein"
  parameter-measured: "apparent KD of MS2 coat protein"
  u: "nM"
  reported-result: 19
- sequence-record: "UGCUGACGAGGAUAUACAUGAGGAUCACCCAUGUUGGUCAAGCGACUUCGGUCGCAAUGUAGAAGGCGUCAGCU [E3/8-A6] (Eterna round: R97, puzzle: Exclusion 3)"
  target-desc: "MS2 coat protein"
  parameter-measured: "apparent KD of MS2 coat protein"
  u: "nM"
  reported-result: 186
- sequence-record: "GAAAAGAACGAGGAUAUGUUGGUGCAUACACUUGCAGAAGGCGUUACUUGAGGAUCACCCAAGUGAGACCGAGU [Cetelege] (Eterna round: R97, puzzle: Exclusion 6)"
  target-desc: "MS2 coat protein"
  parameter-measured: "apparent KD of MS2 coat protein"
  u: "nM"
  reported-result: 273

Qu. # lookup: apparent KD of MS2 coat protein of ACCUCACAUGAGGAUCACCCAUGUCAGGAUAUCUAAUGUAGUCGCGUUCCCGACGCUAAGAGAAGGGACGUUAA [EX1 #35] (Eterna round: R97, puzzle: Exclusion 1)
Ans. 14.6

Qu. # get_value(readout='apparent KD of MS2 coat protein', item= CUCGUGCGGCUUUGCUGUGCGGGUACAUGAGGAUCACCCAUGUAGGAUAUGGUGCGCUUUGCGUGCCAGAAGGGCGUGCGUUGG [salish99_ExNG3_r04_011] (Eterna round: R96, puzzle: Exclusion NG 3) )
Ans. 36.6
